# Test system: HCT116;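 also: HCT116 colorectal carcinoma cells screened at five concentrations per compound, luminescent viability scaled between DMSO wells and empty wells on each plate, curves fitted per compound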
# experimentSummary: AC50 cell viability (CellTiter-Glo); higher = less potent
# conditionContext: 48 h
Values of AC50 cell viability strictly less than 90 nM map to True, and values of at least 90 nM map to False.

structureAsSmiles: O=C1Nc2ccc(Cl)cc2[C@@](C#CC2CC2)(C(F)(F)F)O1
classification: False
--
structureAsSmiles: CC(C)(O)CNc1nc(Nc2ccnc(C(F)(F)F)c2)nc(-c2cccc(C(F)(F)F)n2)n1
classification: False
--
structureAsSmiles: Cn1cnc([N+](=O)[O-])c1Sc1ncnc2nc[nH]c12
classification: False
--
structureAsSmiles: CN(C)C/C=C/C(=O)Nc1cccc(C(=O)Nc2cccc(Nc3ncc(Cl)c(-c4c[nH]c5ccccc45)n3)c2)c1
classification: False
--
structureAsSmiles: CN[C@@H]1C[C@H]2O[C@@](C)([C@@H]1OC)n1c3ccccc3c3c4c(c5c6ccccc6n2c5c31)C(=O)NC4
classification: True
--
structureAsSmiles: CC(C)(C)c1[nH]cnc1/C=c1\[nH]c(=O)/c(=C/c2ccccc2)[nH]c1=O
classification: True
--
structureAsSmiles: Cc1ccc([S+](=O)([O-])Nc2cc(-c3ccc(C#N)s3)ccc2C)cc1
classification: True
